Test system: affinity purified β2GPI-dependent antiphospholipid antibody
Test: Competitive inhibition ELISA: recombinant β2GPI proteins compete for antibody binding to coated full length recombinant β2GPI
Parameters: species or system human
Conditions: Ab 7101
outcome-measure: Max (maximum inhibition observed at concentrations tested) (%)

| molecule | measurement-unit | meas-value |
| --- | --- | --- |
| ---45: recombinant β2GPI deletion mutant with domains 4, 5 (protein) GREVKCPFPSRPDNGFVNYPAKPTLYYKDKATFGCHDGYSLDGPEEIECTKLGNWSAMPSCKASCKLPVKKATVVYQGERVKIQEKFKNGMLHGDKVSFFCKNKEKKCSYTEDAQCIDGTIEVPKCFKEHSSLAFWKTDASDVKPCGHHHHHH | % | 5 |
| 123--: recombinant β2GPI deletion mutant with domains 1, 2, 3 (protein) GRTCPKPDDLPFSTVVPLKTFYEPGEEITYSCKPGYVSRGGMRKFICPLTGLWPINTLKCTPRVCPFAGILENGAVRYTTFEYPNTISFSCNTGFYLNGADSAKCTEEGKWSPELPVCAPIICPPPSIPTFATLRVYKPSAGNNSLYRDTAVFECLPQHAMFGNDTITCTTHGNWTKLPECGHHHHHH | % | 70 |
| recombinant β2GPI domain 5 with GlyHis6 (----5) (protein) GRASCKLPVKKATVVYQGERVKIQEKFKNGMLHGDKVSFFCKNKEKKCSYTEDAQCIDGTIEVPKCFKEHSSLAFWKTDASDVKPCGHHHHHH | % | 5 |
